Provenance of the data: PubChem BioAssay AID179

- Test system: CEM cells HIV-1 protection, formazan growth assay
- Measurement notes: NCI AIDS Antiviral Assay
- Condition notes: measured here: growth of uninfected CEM cells
Exercise: state measured pIC50 for each of the compounds provided.
Scale: negative log10 of molar concentration, which is what pIC50 denotes.

Challenge: Return reported pIC50; argument: CCCCCCCCCCCCCCCCCCNc1nc(=O)n(C2CC(OC(C)=O)C(COP(=O)(O)OCC3CCC(n4ccc(NC(=O)CCCCCCCCCCCCCCC)nc4=O)O3)O2)cc1F (stereo not drawn)
Response given: 4.35

Challenge: I am curious: what pIC50 value has been reported for O=C1CN(c2ccccc2)C(=O)C1C(=O)Nc1ccc(Cl)c(Cl)c1 (stereo not drawn) ?
Response given: 5.41

Challenge: Query: pIC50; subject: `COC(=O)[n+]1cc2c3cccc[n+]3c(N(C)C)n2c2ccccc21`
Response given: 4.78

Challenge: Quick one: pIC50 of `[Ni+2].[O-]/C(=N\N=C/c1cccc(F)c1)c1ccncc1.[O-]/C(=N\N=C\c1cccc(F)c1)c1ccncc1` ?
Response given: 4.42

Challenge: Any idea what pIC50 was measured for CCOC(=O)C1(C)CCc2sc(N)c(C#N)c21 (stereo not drawn) ?
Response given: 3.80

Challenge: Return reported pIC50; argument: `COc1ccc(N=NN2CCCC2)cc1`
Response given: 4.81

Challenge: # input compound: `Cc1nn(-c2ccccc2)c2c1CC(=O)Nc1ccccc1-2` ; wanted: its pIC50
Response given: 6.95

Challenge: May I ask what pIC50 has been recorded for CCCCCC(C)SC1(C(=O)OC)CC(OC(C)=O)C(NC(C)=O)C([C@H](OC(C)=O)[C@@H](COC(C)=O)OC(C)=O)O1 (stereo partly drawn) ?
Response given: 4.20

Challenge: Dear colleague, I am looking for the recorded pIC50 of the following compound: `O=C(Cn1c(=O)cc(Nc2ccccc2)c2ccccc21)Nc1ccccc1`
Response given: 4.05

Challenge: Sample `N#C/C(=C\c1ccc(O)c(O)c1)C(=S)NCc1ccccc1` — what was its pIC50?
Response given: 4.49

Challenge: // lookup pIC50 for `CCOC(=O)/C(=C/c1ccccc1Br)P(=O)(OCC)OCC`
Response given: 5.24

Challenge: Which measured pIC50 value corresponds to `N#Cc1c(N)oc(-c2ccc([N+](=O)[O-])cc2)c1C#N` ?
Response given: 4.17

Challenge: Need pIC50, item O=C(Nc1ccccc1C(=O)O)C(=O)C(C(=O)c1ccccc1-c1ccccc1)C1OC(=O)c2ccccc21 (stereo not drawn)
Response given: 4.60

----------
Assign pEC50 to each entry below.
- Tested on: CEM cells HIV-1 protection, formazan growth assay
- Measurement notes: NCI AIDS Antiviral Assay
pEC50: −log10 of the molar value.

Challenge: Which pEC50 value is on record for `O=c1/c(=C/c2ccccc2[N+](=O)[O-])sc2nc3ccccc3n12` ?
Response given: < 5.49

Challenge: Sample COC1=CC(=O)C2C(C1=O)C(c1ccc(OC)c(OC)c1)[C@H]2C (some centres undefined) — what was its pEC50?
Response given: < 4.92

Challenge: What does the data say about its pEC50? Entry: `c1ccc2c3nnc(c2c1)SCCSCCSc1nnc(c2ccccc12)SCCSCCS3`
Response given: < 3.70

Challenge: Quick one: pEC50 of CC1(C)OC(=O)C=C[C@@]2(C)C1CC(=O)C1(C)C2CCC2(C)C(c3ccoc3)OC(=O)[C@H]3O[C@]321 (some centres undefined) ?
Response given: < 3.70

Challenge: I would be grateful if you could share the reported pEC50 for CC(=O)OC1CC2(c3ccccc3)C(=O)c3ccccc3N2O1 (centres undefined) .
Response given: < 3.94

Challenge: Returns the measured pEC50 for the input compound. Input: `CC(C)(C)C1CCC2(CC1)CCN(N1CCCCCC1)CC2`
Response given: < 4.00

Challenge: Please look up its pEC50: COC(=O)C1=C(C(=O)Nc2cccnc2Cl)N(c2ccc(OC)cc2[N+](=O)[O-])C(c2ccc(C)cc2)=CC1c1ccc(OC)cc1OC (centres undefined)
Response given: < 4.00

Challenge: Consider the compound `CC1(C)CC(=O)c2c(nc3ccc4ccccc4c3c2-c2ccc(NC(=O)CCC(=O)Nc3ccc(-c4c5c(nc6ccc7ccccc7c46)CC(C)(C)CC5=O)cc3)cc2)C1` and give its measured pEC50.
Response given: < 4.00

Challenge: Sample `COc1ccc(Oc2c(OC)cc(NCc3ccc(CN)cc3)c3ncccc23)cc1` — what was its pEC50?
Response given: < 3.70

----------
- Test system: CEM cells HIV-1 protection, formazan growth assay
- Measurement notes: NCI AIDS Antiviral Assay;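 active = compounds giving half or more protection of infected cells from virus-caused growth loss, again on retest; inactive = the rest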
Result category, one only: 1 = active, 0 = inactive

Challenge: Hey, what did the test say about `O=C(OCc1ccccc1)c1ccccc1-c1c2ccc(=O)cc-2oc2cc(OCc3ccccc3)ccc12` ?
Response given: 0

Challenge: Hey, what did the test say about `COc1ccc(/C=C/C(=O)Oc2ccc(/C=C3\CCCCC3=O)cc2)cc1` ?
Response given: 0

Challenge: Per the assay record, what outcome was assigned to `Cc1nc(N2N=C(c3ccc(Cl)cc3)CCC2=O)sc1[N+](=O)[O-]` ?
Response given: 0

Challenge: Can you look up the reported call for `COc1ccc(CCNC(=O)Cc2cc(OC)c(OC)cc2CO)cc1OC` for me?
Response given: 0

Challenge: Record lookup: outcome of this test for N/N=C(/C(=O)Nc1cccc(Cl)c1)C(C(=O)c1ccc(O)cc1O)C1OC(=O)c2ccccc21 (stereo not given) ?
Response given: 0

Challenge: What outcome does the record of this test show for `O=C1C(=O)N(c2ccc(Cl)cc2Cl)C(=O)C(=O)C1c1nc2ccccc2s1` ?
Response given: 0

Challenge: Test call for this molecule, please: C[C@]12OC[C@H](c3ccccc3)N1C(=O)C1[C@H]2CC12SCCS2 (stereo not given in full)
Response given: 0

Challenge: Record lookup: outcome of this test for CCOC(=O)CC1(N)CC2c3ccccc3OC(=O)C2C(=O)N1 (stereo not given) ?
Response given: 0

Challenge: For `C=C[C@@H]1OC(=O)O[C@H]1CO` , what call appears in the results of this test?
Response given: 0

Challenge: # outcome recorded in this test, key = O=C1CN2CC(c3ccccc3)OC2c2ccccc2N1 (stereo not given)
Response given: 0

Challenge: Recorded test call requested for `CC/C(C)=C1/CC(C)(C)N=C1C`
Response given: 0

Challenge: What is the recorded call for this molecule in the test? CN1CC(C(=O)NC2(C)OC3(O)C4CCCN4C(=O)C(Cc4ccccc4)N3C2=O)C=C2c3cccc4[nH]cc(c34)CC21 (stereo not given)
Response given: 0

Challenge: Name the outcome recorded for CC(C)(C)[Si](C)(C)OCC1OC(n2ccc(=O)[nH]c2=O)C(O[Si](C)(C)C(C)(C)C)[C@]12N[C@H](C(=O)O)CS2 (stereo not given in full) in the assay.
Response given: 0

Challenge: Write down the call the test reported for this molecule. Item: CC(C)(C)[Si](C)(C)OC1C(/C=N\O)OC(n2cnc3c(N)ncnc32)C1O[Si](C)(C)C(C)(C)C (stereo not given)
Response given: 0

Challenge: Hi, sorry to bother you, what did the test record for `C(=Nc1ccccc1C1SCCCS1)c1ccccc1` ?
Response given: 0

Challenge: Name the outcome recorded for `N=C(N)c1ccc(NC(=O)c2ccc(C(=O)Nc3ccc(C(=N)N)cc3)c(N)c2)cc1` in the assay.
Response given: 1

Challenge: Check the results log: what was the call for COC1=CC(=O)C2C(C1=O)[C@@H]1c3ccccc3C[C@H]21 (stereo not given in full) ?
Response given: 0

Challenge: Field: outcome | Entry: CC(=O)NC(CCCOC(C)=O)C(=O)NC(CCCOC(C)=O)C(=O)NC(CCCOC(C)=O)C(=O)NC(Cc1ccc([N+](=O)[O-])cc1)C(=O)NCC(=O)OCc1ccccc1 (stereo not given)
Response given: 0

Challenge: What was the test verdict on O=C1CC(c2ccco2)C2(C(=O)CCCC2=O)C(c2ccco2)C1 (stereo not given) ?
Response given: 0

Challenge: Would you mind telling me which call this test gave CCOC(=O)C(=O)Nc1c(CC)cccc1C(C)CC (stereo not given) ?
Response given: 0

----------
- System: CEM cells HIV-1 protection, formazan growth assay
- Measurement notes: NCI AIDS Antiviral Assay
- Condition notes: measured here: growth of uninfected CEM cells
pIC50: −log10 of the molar value.
Record rule met whenever pIC50 is at 4 or higher; record rule not met when lower.

Challenge: Please indicate if the recorded pIC50 for `Oc1c(CN2CCCC2)ccc2ccccc12` meets or exceeds 4.
Response given: rule not met

Challenge: Decide: pIC50 of `CSc1cc(-c2ccccn2)nc(-c2ccccn2)c1.CSc1cc(-c2ccccn2)nc(-c2ccccn2)c1.[Ni+2].[O-][Cl+3]([O-])([O-])[O-]` >= 4?
Response given: rule not met

Challenge: I'd appreciate it if you could say whether `CCOC(=O)C[P+](c1ccc(Cl)cc1)(c1ccc(Cl)cc1)c1ccc(Cl)cc1` has pIC50 at least equal to 4.
Response given: rule met

Challenge: Exam item: decide whether the reported pIC50 for COCc1cn(C2CC(F)C(CO)O2)c(=O)nc1N (centres undefined) is at least 4.
Response given: rule not met

Challenge: Decide: is the reported value of pIC50 for COc1cc2c(c(OC)c1OC)-c1ccc(OC)c(=O)cc1C([N+](C)(C)C)CC2 (centres undefined) equal to or greater than 4?
Response given: rule met

Challenge: Check the entry Cc1cccc(C2ON=C(c3ccccc3)N2C23CC4CC(CC(C4)C2)C3)c1 (centres undefined) : does pIC50 equal or exceed 4?
Response given: rule met

Challenge: Entry `CC(C)n1c(=O)[nH]n(-c2ccccc2)c1=O` : is its pIC50 no less than 4?
Response given: rule not met

Challenge: Form field: pIC50 at least 4? Entry: `CC(C)=CCC1=C(O)C(=O)C(CC=C(C)C)=C(O)C1=O`
Response given: rule met

Challenge: Decide: is the reported value of pIC50 for `Cc1ccc(C(=O)c2cccc(C)c2C(=O)O)c(C)c1` equal to or greater than 4?
Response given: rule not met

Challenge: Quick check, pIC50 >= 4? CC(=O)OC1CC2(c3ccccc3)C(=O)c3ccccc3N2O1 (centres undefined)
Response given: rule not met

Challenge: Hi, just wondering whether `CCOC(=O)NN(C(=O)OCC)c1c(C)cc(C)cc1C` shows pIC50 of 4 or higher.
Response given: rule not met

Challenge: Reported pIC50 reaches at least 4 for N#CC1CC(c2ccccc2)Nc2cc(Cl)ccc2N1 (centres undefined) ?
Response given: rule met

Challenge: Given `COc1ccc(/C=C2\CSC(=O)NC2=O)cc1OC` , state whether its pIC50 is at least 4.
Response given: rule not met

Challenge: For this molecule, is measured pIC50 4 or higher? COc1ccc(C(O)/C(=C/n2ccnc2)c2ccccc2)cc1OC (centres undefined)
Response given: rule not met

Challenge: Has `NC1=NS(=O)(=O)Nc2nn(-c3ccccc3)nc21` a recorded pIC50 greater than or equal to 4?
Response given: rule not met

Challenge: Decide: pIC50 of `N=C(N)n1[nH]c2c(c1=O)CCCC2` >= 4?
Response given: rule not met

Challenge: Exam item: decide whether the reported pIC50 for `CN(O)C(=O)c1ccccc1` is at least 4.
Response given: rule not met

Challenge: Check if pIC50 >= 4 (inclusive). Item: `C(/C=C/Nc1ccc(Oc2ccccc2)cc1)=Nc1ccc(Oc2ccccc2)cc1`
Response given: rule met
